study.target: T1, Anti-HBsAg antibody(g)
T1 construct: also called anti-HBsAg antibodies from goats; goat IgG (HBsAg)
test.name: labelled peptide on antibody immobilised on microplate; antigen HBsAg
Ends that are not written are not given here. FAM = carboxyfluorescein (FAM) fluorescent label
measured.parameter: change (%) of fluorescence in solution (S)

| binder | observed.value |
| --- | --- |
| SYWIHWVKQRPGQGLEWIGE (not fully specified (N-terminus), Synthetic 20-mer homologous to the FR2 region of the heavy chain; The fluorescent label differs between experiments; also called H1 switching peptide; third peptide compound H1) [H1 peptide] | 410% |
| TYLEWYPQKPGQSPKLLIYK (not fully specified (N-terminus), Synthetic 20-mer homologous to the FR2 region of the light chain; The label differs between experiments; also called L1 switching peptide; first peptide compound L1) [L1 peptide] | 638% |
| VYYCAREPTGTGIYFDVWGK (not fully specified (N-terminus), Synthetic 20-mer homologous to the FR3 or FR4 region of the heavy chain; The label differs between experiments; also called H2 switching peptide; fourth peptide compound H2) [H2 peptide] | 412% |
| {FAM}-VYYCFQGSHVPFTK (Synthetic 14-mer homologous to the FR3 or FR4 region of the light chain; also called L2 switching peptide; second peptide compound L2) [L2 peptide] | 574% |

Origin of measurements: patent US20250341517A1
